- testedOn: intracellular ATR (Homo sapiens, UniProt Q13535)
- Construct: endogenous in cells
- Sequence (Q13535 whole entry): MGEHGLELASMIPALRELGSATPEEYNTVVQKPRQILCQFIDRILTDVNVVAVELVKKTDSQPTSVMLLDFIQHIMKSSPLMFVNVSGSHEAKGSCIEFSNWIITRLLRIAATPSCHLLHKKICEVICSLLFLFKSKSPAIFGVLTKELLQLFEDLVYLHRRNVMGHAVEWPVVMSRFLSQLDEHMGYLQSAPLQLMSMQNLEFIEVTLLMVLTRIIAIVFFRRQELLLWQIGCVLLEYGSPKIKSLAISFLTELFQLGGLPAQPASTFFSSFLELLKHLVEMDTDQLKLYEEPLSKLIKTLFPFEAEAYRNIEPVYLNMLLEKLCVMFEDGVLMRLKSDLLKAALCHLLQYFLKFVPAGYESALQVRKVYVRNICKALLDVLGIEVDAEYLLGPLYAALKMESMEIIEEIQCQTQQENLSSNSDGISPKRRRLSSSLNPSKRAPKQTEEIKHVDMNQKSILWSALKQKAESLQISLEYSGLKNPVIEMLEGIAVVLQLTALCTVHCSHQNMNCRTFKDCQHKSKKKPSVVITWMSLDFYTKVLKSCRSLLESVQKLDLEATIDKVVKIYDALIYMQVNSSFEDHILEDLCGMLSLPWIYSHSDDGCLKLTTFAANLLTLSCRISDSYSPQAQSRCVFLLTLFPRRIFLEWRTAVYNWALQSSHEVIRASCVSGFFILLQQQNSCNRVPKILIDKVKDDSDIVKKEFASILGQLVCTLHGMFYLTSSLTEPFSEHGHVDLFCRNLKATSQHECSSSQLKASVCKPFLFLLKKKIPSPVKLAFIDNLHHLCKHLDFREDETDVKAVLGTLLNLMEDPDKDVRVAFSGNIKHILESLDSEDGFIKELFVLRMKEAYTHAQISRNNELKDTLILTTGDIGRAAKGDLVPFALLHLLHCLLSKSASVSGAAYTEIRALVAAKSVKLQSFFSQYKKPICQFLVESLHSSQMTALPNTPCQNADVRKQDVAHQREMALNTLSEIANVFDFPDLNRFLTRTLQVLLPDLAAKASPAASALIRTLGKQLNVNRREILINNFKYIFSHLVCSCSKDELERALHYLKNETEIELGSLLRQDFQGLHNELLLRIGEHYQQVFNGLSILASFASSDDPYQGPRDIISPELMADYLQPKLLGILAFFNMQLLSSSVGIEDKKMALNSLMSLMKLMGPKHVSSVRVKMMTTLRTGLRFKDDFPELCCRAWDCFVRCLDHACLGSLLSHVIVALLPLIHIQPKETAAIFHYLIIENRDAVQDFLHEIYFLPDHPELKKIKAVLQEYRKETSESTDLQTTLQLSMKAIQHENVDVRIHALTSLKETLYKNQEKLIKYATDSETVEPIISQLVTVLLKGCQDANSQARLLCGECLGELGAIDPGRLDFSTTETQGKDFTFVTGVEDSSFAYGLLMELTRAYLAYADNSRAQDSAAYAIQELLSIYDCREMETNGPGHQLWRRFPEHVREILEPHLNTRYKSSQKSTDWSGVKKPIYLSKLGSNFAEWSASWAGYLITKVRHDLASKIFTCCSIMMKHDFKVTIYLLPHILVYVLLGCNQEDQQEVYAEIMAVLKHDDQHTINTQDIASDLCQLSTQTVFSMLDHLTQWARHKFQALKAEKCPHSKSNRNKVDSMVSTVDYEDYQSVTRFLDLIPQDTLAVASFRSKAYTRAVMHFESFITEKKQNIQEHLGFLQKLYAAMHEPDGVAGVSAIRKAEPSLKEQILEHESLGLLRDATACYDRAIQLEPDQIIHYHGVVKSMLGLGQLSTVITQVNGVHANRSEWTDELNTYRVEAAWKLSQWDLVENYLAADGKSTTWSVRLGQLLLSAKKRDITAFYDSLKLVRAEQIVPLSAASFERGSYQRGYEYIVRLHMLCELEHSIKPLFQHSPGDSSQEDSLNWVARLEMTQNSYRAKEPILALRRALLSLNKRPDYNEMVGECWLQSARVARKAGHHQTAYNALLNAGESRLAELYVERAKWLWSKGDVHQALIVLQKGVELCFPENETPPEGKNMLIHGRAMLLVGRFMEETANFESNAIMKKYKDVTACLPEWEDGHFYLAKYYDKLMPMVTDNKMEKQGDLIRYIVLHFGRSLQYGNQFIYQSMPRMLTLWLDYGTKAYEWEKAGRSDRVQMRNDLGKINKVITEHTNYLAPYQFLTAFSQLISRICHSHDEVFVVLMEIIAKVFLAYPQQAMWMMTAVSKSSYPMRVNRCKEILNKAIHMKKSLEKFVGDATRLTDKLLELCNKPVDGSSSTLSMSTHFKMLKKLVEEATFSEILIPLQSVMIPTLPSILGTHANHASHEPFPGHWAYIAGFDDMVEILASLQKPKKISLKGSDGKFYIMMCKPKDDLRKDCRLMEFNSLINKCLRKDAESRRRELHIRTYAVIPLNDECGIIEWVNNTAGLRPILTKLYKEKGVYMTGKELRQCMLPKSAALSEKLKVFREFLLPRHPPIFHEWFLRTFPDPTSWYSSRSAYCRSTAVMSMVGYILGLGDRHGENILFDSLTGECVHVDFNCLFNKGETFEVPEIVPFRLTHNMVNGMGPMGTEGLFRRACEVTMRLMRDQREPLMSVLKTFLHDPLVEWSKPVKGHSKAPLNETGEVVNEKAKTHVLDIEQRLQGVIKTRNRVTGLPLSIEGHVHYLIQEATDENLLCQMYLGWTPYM
- Sequence (Q8WXE1 whole entry partner): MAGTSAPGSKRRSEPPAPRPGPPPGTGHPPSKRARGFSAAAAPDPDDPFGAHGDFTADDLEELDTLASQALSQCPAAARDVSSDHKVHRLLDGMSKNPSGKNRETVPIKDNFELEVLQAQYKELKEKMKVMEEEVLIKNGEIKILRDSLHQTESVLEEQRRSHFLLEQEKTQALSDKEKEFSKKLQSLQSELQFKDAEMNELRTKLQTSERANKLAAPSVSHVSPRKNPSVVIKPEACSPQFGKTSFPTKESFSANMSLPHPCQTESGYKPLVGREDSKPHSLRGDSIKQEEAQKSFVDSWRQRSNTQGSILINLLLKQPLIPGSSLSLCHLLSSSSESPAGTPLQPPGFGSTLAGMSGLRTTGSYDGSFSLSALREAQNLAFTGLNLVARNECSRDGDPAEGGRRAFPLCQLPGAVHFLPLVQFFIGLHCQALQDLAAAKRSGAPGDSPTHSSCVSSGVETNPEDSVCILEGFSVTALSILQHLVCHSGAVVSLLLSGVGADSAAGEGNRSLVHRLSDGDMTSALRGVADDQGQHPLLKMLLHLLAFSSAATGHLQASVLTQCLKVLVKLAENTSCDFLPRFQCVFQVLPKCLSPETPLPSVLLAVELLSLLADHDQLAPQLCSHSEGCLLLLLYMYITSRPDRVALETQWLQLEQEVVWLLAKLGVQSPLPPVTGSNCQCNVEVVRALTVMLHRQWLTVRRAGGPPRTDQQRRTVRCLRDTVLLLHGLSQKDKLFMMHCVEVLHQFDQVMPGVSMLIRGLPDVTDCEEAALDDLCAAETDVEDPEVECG
- methodSummary: Cellular ATR inhibition assay, H2AX phosphorylation in hydroxyurea treated HT29 cells
- reportedConditions: 2 mM hydroxyurea, phosphorylated H2AX Ser139 positive nuclei
measuredParameter: pIC50
Keep in mind that pIC50 stands for -log10 of concentration in molar terms.

Ask | Could you tell me which pIC50 is on file for CC(C)S(=O)(=O)c1ccc(-c2cnc(N)c(-c3cc(-c4ccc(NCC5CCCCN5)cc4)no3)n2)cc1 (stereo not drawn) ?
Reply | 7.21

Ask | How about this compound: CC(C)S(=O)(=O)c1ccc(-c2cnc(N)c(-c3cc(-c4ccc(NC[C@H]5CCCN5)cc4)no3)n2)cc1
Reply | 7.89
